Listing: inhibition of selected compounds
experiment: human hepatoma cell viability loss – ATP luminescence, cytotoxicity control for P. falciparum antimalarial project, primary screen (AID 2303);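 further: 0% = DMSO wells and 100% = digitonin-killed cells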
conditions.used: HepG2 viability, 24-48 h, at 10 µM, active compounds read high

{"columns": ["compound", "inhibition [%]"],
 "data": [
  ["CC(C)(C)c1ccc(NC(=O)c2ccc(CN3CCCN(CC4CCCCC4)CC3)cc2)cc1", 54],
  ["CN(Cc1ccccc1)C(=O)c1nn(CCCN2CCC(N3CCCC3)CC2)cc1-c1ccc(Cl)c(Cl)c1", 43],
  ["COc1ccc(-c2cccc(NC(=O)c3cccc(C#N)c3)c2)cc1CN1CCNCC1", 27],
  ["N#Cc1cccc(CN2CCCN(Cc3ccc(C(=O)Nc4ccc(Cl)cc4)cc3)CC2)c1", 48],
  ["COc1ccc(C2CCN(CCN3CCC(NC(=O)c4cccc(-c5ccncc5)c4)CC3)CC2)c(OC)c1", 7],
  ["COC(=O)c1c(NC(=O)c2cccc(C(F)(F)F)c2)sc2c1CCN(Cc1ccccc1)C2", 9],
  ["CCn1c(C2CCN(CCC3CCN(C(=O)/C=C/c4ccc(Cl)c(Cl)c4)CC3)CC2)nc2ccccc21", 17],
  ["Cc1ccc(-n2c(C)nc3c(Nc4ccc(-c5ccncc5)cc4)ncnc32)c(C)c1", 38],
  ["O=C(NCC1CCC(C(=O)NCc2cccc(C(F)(F)F)c2)CC1)c1ccc(O)c(-c2ccc(Cl)c(Cl)c2)c1 (stereo unspecified)", 5],
  ["CN1CCCC(COc2cc3c(cc2Br)CCN3C(=O)Nc2ccc(-c3ccncc3)c(Cl)c2)C1 (stereo unspecified)", 99],
  ["O=C(Nc1cccc(C(F)(F)F)c1)Nc1ccc(Cl)c(C(F)(F)F)c1", -4]
]}

----------
Listing: inhibition of selected compounds
target.desc: L-lactate dehydrogenase (Plasmodium falciparum (isolate CDC / Honduras)) (UniProt Q27743)
Sequence (Q27743 whole entry, looked up): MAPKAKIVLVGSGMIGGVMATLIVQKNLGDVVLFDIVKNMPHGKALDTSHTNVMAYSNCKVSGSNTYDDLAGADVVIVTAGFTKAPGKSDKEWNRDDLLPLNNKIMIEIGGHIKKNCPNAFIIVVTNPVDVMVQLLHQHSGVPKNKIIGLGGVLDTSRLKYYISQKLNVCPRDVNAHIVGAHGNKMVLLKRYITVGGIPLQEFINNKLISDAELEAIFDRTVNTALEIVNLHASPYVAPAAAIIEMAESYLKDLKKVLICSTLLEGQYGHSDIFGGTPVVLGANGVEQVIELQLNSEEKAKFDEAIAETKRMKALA
experiment: PfLDH activity inhibition – cell lysate, 3D7 strain, counter-screen for P. falciparum growth inhibition project (AID 2304);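 further: 0% = vehicle and 100% = reference inhibitor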
conditions.used: P. falciparum 3D7 crude extract, LDH APAD/NBT absorbance; at 2 µM; active compounds read high

{"columns": ["compound", "inhibition [%]"],
 "data": [
  ["Nc1c2ccccc2nc2cc(Cl)ccc12", -3],
  ["O=C(CCCCCNC(=O)c1ccc(O)c(-c2ccc(Cl)c(Cl)c2)c1)NCCN1CCCC1", -2],
  ["O[C@@H](c1ccccc1)[C@@H]1CN(CCC2C[C@@H]3CC[C@H]2C3)CC[C@@]1(O)c1ccccc1 (some centres not stated)", -2],
  ["CN1CCN(c2ccnc3ccc(NC(=O)Cc4ccc(Br)c5ccccc45)cc23)CC1", -3],
  ["Cn1c(Sc2ncnc3sccc23)nc2ccccc21", 5],
  ["C[C@@H]1CN(c2ncc(-c3ccc(CNC4Cc5ccccc5C4)cc3)cn2)C[C@H](C)N1", -10],
  ["CC1(C)[C@H]2CC[C@@H](CNc3nc(NCC(=O)Nc4ccc5ccccc5c4)nc(N4CCC(N5CCCC5)CC4)n3)[C@@H]1C2", -5],
  ["CCC1N=C(N)N=C(N)N1OCc1ccc(Cl)c(Cl)c1 (configuration not stated)", -4],
  ["O=S(=O)(c1ccc(NC(=S)NN=Cc2ccccn2)cc1)N1CCCCC1", -5],
  ["Cc1cc(=O)[nH]c(-n2nc(C)cc2NC(=O)C(c2ccccc2)c2ccccc2)n1", -1],
  ["O=C(N[C@@H](Cc1ccccc1)CN1CCC(Oc2ccc(F)cc2)CC1)c1ccc(OCCCN2CCCCC2)cc1", 3],
  ["Fc1ccc2nccc(NN=CC=Cc3ccccc3)c2c1", -2]
]}
